- TESTED_TARGET: T1, gp120SF162 (HIV-1, UniProt P19550 32-502)
- T1 construct: domain: gp120
- ASSAY_PROCEDURE: fluorescence polarization competition: 6 nM gp120SF162, 1 nM fluorescein-CD4M33
In this section, each of the binders is paired with its reported IC50 (read off the curve).

# BINDER, IC50 (read off the curve)
records = [
    ("XNLHFCQLRCKSLGLLGRCAXTFCACV (not fully specified; N-terminal thiopropionic acid (TPA) at position 1; (D)Pro at 21; C-terminal amide; Lys11 carries a mercapto group ligated to a maleimido group of a polylysine construct with 50 Å PEGylated linkers, dimer of CD4M48-SH on a polylysine construct) [CD4M48D50]", "~1 nM"),
    ("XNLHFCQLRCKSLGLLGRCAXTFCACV (not fully specified; N-terminal thiopropionic acid (TPA) at position 1; (D)Pro at 21; C-terminal amide; Lys11 carries a mercapto group ligated to a maleimido group of a polylysine construct with 50 Å PEGylated linkers, tetramer of CD4M48-SH on a polylysine construct) [CD4M48T50]", "~1 nM"),
    ("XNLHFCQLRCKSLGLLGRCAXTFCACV (not fully specified; N-terminal thiopropionic acid (TPA) at position 1; (D)Pro at 21; C-terminal amide, optimized mini-protein, Phe at 23; unlabelled monomer; also called B4T) [CD4M48]", "~3 nM"),
    ("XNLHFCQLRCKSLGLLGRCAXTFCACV (not fully specified; N-terminal thiopropionic acid (TPA) at position 1; (D)Pro at 21; C-terminal amide; Lys11 carries a mercapto group ligated to a maleimido group of a polylysine construct with 100 Å PEGylated linkers, dimer of CD4M48-SH on a polylysine construct) [CD4M48D100]", "~2 nM"),
    ("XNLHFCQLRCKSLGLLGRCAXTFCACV (not fully specified; N-terminal thiopropionic acid (TPA) at position 1; (D)Pro at 21; C-terminal amide; Lys11 carries a mercapto group ligated to a maleimido group of a polylysine construct with 100 Å PEGylated linkers, tetramer of CD4M48-SH on a polylysine construct) [CD4M48T100]", "~2 nM"),
]
